- System name: human FFAR1 (GPR40) (Homo sapiens)
- Construct: Flag
- Assay protocol: NFAT-RE-based reporter gene activity assay (Dual-Glo luciferase) for GPR40 agonistic activity in co-transfected HEK293T cells
- Condition label: 4-hour treatment
Measure name: EC50

{"Compound": "COc1cccc(N2CCC(c3oc4cc(C(CC(=O)O)C5CC5)ccc4c3-c3cnn(C(C)(C)C)c3)CC2)c1F (stereo not shown) [Compound 86]", "EC50": "10 to 100 nM"}
{"Compound": "CCc1ccc(Cl)c(NC(=O)c2c(C3CCN(c4cccc(OC)c4)CC3)oc3cc([C@@H](CC(=O)O)C4CC4)ccc23)c1 [Compound 278]", "EC50": "< 10 nM"}
{"Compound": "CCC(c1ccccc1OC)N1CCC(c2oc3cc(C(CC(=O)O)C4CC4)ccc3c2C(=O)Nc2ccccc2F)CC1 (stereo not shown) [Compound 326]", "EC50": "100 to 500 nM"}

Note: attention shifts to another entry.
### Prompt Report EC50 for COc1ccc(F)c(N2CCC(c3oc4cc(C(CC(=O)O)C5CC5)ccc4c3CC3=CCCC3)CC2)c1 (stereo not shown) [Compound 383] please.
### Response 100 to 500 nM

====

- System name: human FFAR1 (GPR40) (Homo sapiens, UniProt O14842)
- Construct: Flag
- Sequence (O14842 whole entry): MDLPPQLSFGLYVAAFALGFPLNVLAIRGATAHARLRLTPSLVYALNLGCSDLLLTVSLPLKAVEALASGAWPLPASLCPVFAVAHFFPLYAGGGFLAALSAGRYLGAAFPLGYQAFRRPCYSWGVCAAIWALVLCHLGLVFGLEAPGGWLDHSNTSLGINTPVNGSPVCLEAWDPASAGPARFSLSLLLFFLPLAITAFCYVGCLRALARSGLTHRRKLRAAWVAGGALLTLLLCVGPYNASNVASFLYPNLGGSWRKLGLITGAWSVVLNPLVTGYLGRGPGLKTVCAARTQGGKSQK
- Assay protocol: NFAT-RE-based reporter gene activity assay (Dual-Glo luciferase) for GPR40 agonistic activity in co-transfected HEK293T cells
- Condition label: 4-hour treatment
Measure name: EC50

### Prompt // fetch human FFAR1 (GPR40) (Homo sapiens, UniProt O14842) EC50 for COc1cccc(N2CCC(c3oc4cc([C@@H](CC(=O)O)C5CC5)ccc4c3C(=O)Nc3ccccc3C(F)(F)F)CC2)c1
### Response 10 to 100 nM

====

- Assay protocol: Pharmacokinetic evaluation in ICR mice (intravenous and gavage)
- Type: in vivo
- Condition label: male, ICR, mouse, plasma, Intravenous Administration (5 mg/kg)
Measure name: half-life (h)
Use h as the unit, but write only the number.

### Prompt Report half-life for COc1ccc(F)c(N2CCC(c3oc4cc([C@@H](CC(=O)O)C5CC5)ccc4c3-c3cnn(C(C)(C)C)c3)CC2)c1 please.
### Response 5.46

====

Known CL_obs of a selection of compounds
- Assay protocol: Pharmacokinetic evaluation in ICR mice (intravenous and gavage)
- Type: in vivo
- Condition label: Intravenous Administration (5 mg/kg)
Use mL/min/kg as the unit, but write only the number.

Some compounds with recorded CL_obs:
{"Compound": "COc1ccc(F)c(N2CCC(c3oc4cc(C(CC(=O)O)C5CC5)ccc4c3-c3ccc(C(C)(C)C)cc3)CC2)c1 (centres unmarked)", "CL_obs, mL/min/kg": 2.1}
{"Compound": "COc1cccc(N2CCC(c3oc4cc([C@@H](CC(=O)O)C5CC5)ccc4c3-c3cnn(C(C)(C)C)c3)CC2)c1", "CL_obs, mL/min/kg": 2.3}
{"Compound": "COc1ccc(F)c(N2CCC(c3oc4cc([C@@H](CC(=O)O)C5CC5)ccc4c3-c3cccc(C(C)(C)C)c3)CC2)c1", "CL_obs, mL/min/kg": 1.6}
{"Compound": "COc1cccc(N2CCC(c3oc4cc([C@@H](CC(=O)O)C5CC5)ccc4c3-c3cccc(C(C)(C)C)c3)CC2)c1", "CL_obs, mL/min/kg": 1.9}

Note: attention shifts to another entry.
### Prompt Report CL_obs for COc1ccc(F)c(N2CCC(c3oc4cc([C@@H](CC(=O)O)C5CC5)ccc4c3-c3cnn(C(C)(C)C)c3)CC2)c1 please.
### Response 1.3
